B1: CPEB3 Ribozyme (parent)
chain: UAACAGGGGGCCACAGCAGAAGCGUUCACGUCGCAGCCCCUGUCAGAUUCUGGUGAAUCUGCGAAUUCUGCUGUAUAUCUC

- Variants of: B1
- measurement-description: self-cleavage, relative activity (ratio to wild type); higher = more cleavage; in vitro, sequencing
# binning rule on self-cleavage: low value: < 0.3; medium value: ≥ 0.3 and < 0.7; high value: ≥ 0.7

Solved entries:
* G16A U58A | low value
* U54A U72G | high value
* A21U U67C | low value
* A28U U41C | high value
* A5U C23U | low value

Sort A13U G63U into one of the categories. high value
